Target: T1, melanocortin 3 receptor (MC3R) (UniProt P41968 1-323, limits assumed)
T1 construct: whole, on cells; Membrane preparations; also called MCR-3
T1 sequence (P41968 whole entry): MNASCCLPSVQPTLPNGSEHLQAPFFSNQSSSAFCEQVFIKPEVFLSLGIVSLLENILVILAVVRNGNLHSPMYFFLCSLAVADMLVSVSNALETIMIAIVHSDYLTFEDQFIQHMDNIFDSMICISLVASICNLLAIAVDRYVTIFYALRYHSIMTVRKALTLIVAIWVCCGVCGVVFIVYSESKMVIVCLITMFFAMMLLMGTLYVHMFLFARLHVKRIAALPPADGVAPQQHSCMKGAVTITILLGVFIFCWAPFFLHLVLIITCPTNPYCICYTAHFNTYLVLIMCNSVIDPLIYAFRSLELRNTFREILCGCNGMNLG
Experiment: 125I-NDP-MSH competition, HEK293 membranes
pKi: −log10 of the molar value. [ ]: non-standard residue; d: D form. The star is where a group is joined. Butanoyl(4-Ph) = O=C(CCCc1ccccc1)*; Stearyl = stearyl group
readout-label: pKi

A. Stearyl-H[dF]RW-NH2 [(Stearyl) HfRW (820)]
B. {Butanoyl(4-Ph)}-H[dF]RW-NH2 [(Ph(CH2)3CO) HfRW (819)]
Recorded pKi values differ for A and B ; which one is higher? Field: selected label. Fill in the label of the entry you choose.
B
